Entries and their Selectivity
protocol: Selectivity of uptake of 5-HT to DA
Format: functional
Quick one: just the number, no unit, thanks!

Fc1ccc(C2C3CC[C@H](C[C@H]2c2ccc(F)cc2)N3CCCCc2ccccc2)cc1 (stereo not given in full) ... 0.52

Q: Query (compound): Cc1ccc([C@@H]2C[C@H]3CCC(C2c2ccccc2)N3CCc2ccccc2)cc1 (stereo not given in full) ; field requested: Selectivity
Result: 113

Q: # input compound: Fc1ccc(C2C3CC[C@H](C[C@H]2c2ccc(F)cc2)N3CCCc2ccccc2)cc1 (stereo not given in full) ; wanted: its Selectivity
Result: 14

Q: Entry Fc1ccc(C2C3CC[C@H](C[C@H]2c2ccc(F)cc2)N3Cc2ccccc2)cc1 (stereo not given in full) has what Selectivity?
Result: 2.9
